Listing of recorded CHOLESTEROL by entry.
organism: Rattus norvegicus; test: DrugMatrix - Regimen: Daily Repeat; format: toxicity, organism-based, Sprague-Dawley; parameters: regimen Daily Repeat, gender Male, age 6-8 weeks; settings: in vivo, iv, 0 mg/kg, 72 h, tissue Plasma, dose level Control, time 3 day, vehicle 100 % SALINE
Please state the figure in mg/dL; there is no need to write the unit.

Given COc1cc2c3cc1Oc1cc(ccc1O)C[C@@H]1c4c(cc(OC)c(O)c4Oc4ccc(cc4)C[C@@H]3N(C)CC2)CC[N+]1(C)C.[Cl-] , state its recorded CHOLESTEROL.
74.17

---

species: Rattus norvegicus; test: DrugMatrix - Regimen: Daily Repeat; assay type: toxicity, organism-based, Sprague-Dawley; set-up: regimen Daily Repeat, gender Male, age 6-8 weeks; conditions: in vivo, po, 0 mg/kg, 120 h, tissue Blood, route oral GAVAGE, dose level Control, time 5 day, vehicle .5 % CMC
So basically, if LEUKOCYTE COUNT comes in under 10 x10E3/uL it's fulfilled, and if it's 10 x10E3/uL or more it's not fulfilled.

Would you kindly verify if LEUKOCYTE COUNT of ClC(Br)Br is strictly less than 10 x10E3/uL?
fulfilled

And the next one, ClC(Cl)Br ?
fulfilled

Would you kindly repeat that for CCCN1C[C@H](CSC)C[C@@H]2c3cccc4[nH]cc(c34)C[C@H]21 [PERGOLIDE] ?
not fulfilled

Input CCOP(=S)(OCC)Oc1nc(Cl)c(Cl)cc1Cl
fulfilled

Here is the next compound: NC1=NC(=O)C(c2ccccc2)O1 (configuration not stated)
not fulfilled

---

Listed next: entries and their corresponding ALBUMIN.
species on record: Rattus norvegicus; assay: DrugMatrix - Regimen: Daily Repeat; format: toxicity, organism-based, Sprague-Dawley; parameters: regimen Daily Repeat, gender Male, age 6-8 weeks; conditions: in vivo, po, 0 mg/kg, 72 h, tissue Plasma, route oral GAVAGE, dose level Control, time 3 day, […]
The figure you give is taken to be in G/DL; do not add the unit.

Please report the recorded ALBUMIN for C[C@@H]1CN(c2c(F)c(N)c3c(=O)c(C(=O)O)cn(C4CC4)c3c2F)C[C@H](C)N1 .
3.98

---

species: Rattus norvegicus; experiment: DrugMatrix - Regimen: Daily Repeat; assay type: toxicity, organism-based, Sprague-Dawley; parameters: regimen Daily Repeat, gender Male, age 6-8 weeks; details: in vivo, po, 0 mg/kg, 72 h, tissue Plasma, route oral GAVAGE, dose level Control, time 3 day, […]
Quantity name: TOTAL PROTEIN (G/DL)
The figure you give is taken to be in G/DL; do not add the unit.

See these solved cases before continuing.
CCOC(=O)C1=C(COCCN)NC(C)=C(C(=O)OC)C1c1ccccc1Cl (stereo not drawn) [AMLODIPINE] : 5.67
O=NN(CCCl)C(=O)NC1CCCCC1 [LOMUSTINE] : 5.67
C[C@H]1O[C@@H](O[C@H]2[C@@H](O)C[C@H](O[C@H]3[C@@H](O)C[C@H](O[C@H]4CC[C@@]5(C)[C@H](CC[C@@H]6[C@@H]5C[C@@H](O)[C@]5(C)[C@@H](C7=CC(=O)OC7)CC[C@]65O)C4)O[C@@H]3C)O[C@@H]2C)C[C@H](O)[C@@H]1O [DIGOXIN] : 5.82
OC(Cn1cncn1)(Cn1cncn1)c1ccc(F)cc1F [FLUCONAZOLE] : 5.72
CC(C)(Oc1ccc(Cl)cc1)C(=O)O [CLOFIBRIC ACID] : 5.68
CC(C)C(=O)Nc1ccc([N+](=O)[O-])c(C(F)(F)F)c1 [FLUTAMIDE] : 5.43
O=c1oc2ccccc2c(O)c1Cc1c(O)c2ccccc2oc1=O [DICUMAROL] : 5.77

Then there is this compound:
Reported TOTAL PROTEIN for Cc1ccc(-c2cc(C(F)(F)F)nn2-c2ccc(S(N)(=O)=O)cc2)cc1 [CELECOXIB] : what is it?
5.72
